test: self-splicing fitness, log relative to wild type (ln ratio); higher = more splicing; Tetrahymena group I intron in knt gene, E. coli kanamycin selection, DiMSum; sequences stand for … in CUCUCU…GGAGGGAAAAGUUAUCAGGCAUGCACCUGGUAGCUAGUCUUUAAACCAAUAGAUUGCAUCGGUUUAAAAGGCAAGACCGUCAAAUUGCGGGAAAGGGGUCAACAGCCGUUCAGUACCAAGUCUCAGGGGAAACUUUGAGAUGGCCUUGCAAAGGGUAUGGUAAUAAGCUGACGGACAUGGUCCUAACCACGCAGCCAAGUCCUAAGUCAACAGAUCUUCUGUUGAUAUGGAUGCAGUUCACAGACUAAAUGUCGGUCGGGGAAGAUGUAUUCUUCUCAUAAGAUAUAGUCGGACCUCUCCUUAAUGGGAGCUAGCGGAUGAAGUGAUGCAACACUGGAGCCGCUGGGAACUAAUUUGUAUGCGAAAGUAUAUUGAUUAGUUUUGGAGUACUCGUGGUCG; settings: 30 °C;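 further: selection with 25 µg/mL kanamycin versus none on LB agar overnight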
Parameter self-splicing fitness (ln): see the listing below.
Measurement Label: self-splicing fitness (ln)

macromolecule_sequence=GGUCAGCAAUAUUACGGUGG value_reported=-4.17
macromolecule_sequence=CAUCAGCAAUAUUACGAAUG value_reported=-3.18
macromolecule_sequence=GUUAAGCAAUAUUACGUACU value_reported=-0.559
macromolecule_sequence=GAGGAGCAAUAUUACGGUCU value_reported=-3.51
macromolecule_sequence=UUGUAGCAAUAUUACGAGUU value_reported=-3.22
macromolecule_sequence=AAUUAGCAAUAUUACGUGAG value_reported=-1.71
macromolecule_sequence=UGCAAGCAAUAUUACGUGAG value_reported=-3.87
macromolecule_sequence=GCAAAGCAAUAUUACGGAUA value_reported=-2.49

###

assay: self-splicing fitness, log relative to wild type (ln ratio); higher = more splicing; Tetrahymena group I intron in knt gene, E. coli kanamycin selection, DiMSum; sequences stand for … in CUCUCU…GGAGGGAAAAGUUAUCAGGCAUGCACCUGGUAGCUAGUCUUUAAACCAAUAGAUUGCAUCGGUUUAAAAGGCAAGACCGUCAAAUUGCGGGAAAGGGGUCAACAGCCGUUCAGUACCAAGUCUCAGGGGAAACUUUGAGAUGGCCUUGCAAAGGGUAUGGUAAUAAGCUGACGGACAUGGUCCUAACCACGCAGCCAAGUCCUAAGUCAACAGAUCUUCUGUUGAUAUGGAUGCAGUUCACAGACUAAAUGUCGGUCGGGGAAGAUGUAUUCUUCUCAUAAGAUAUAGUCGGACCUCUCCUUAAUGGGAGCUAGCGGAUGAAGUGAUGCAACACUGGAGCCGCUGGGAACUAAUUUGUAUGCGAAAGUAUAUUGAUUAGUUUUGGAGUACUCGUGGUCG; settings: 30 °C
Yes means recorded self-splicing fitness (ln) is -3 or above; No means it is below -3.

macromolecule_sequence=GCCAAGCAAUAUUACGCCGG group_label=Yes
macromolecule_sequence=CGCAAGCAAUAUUACGCGCA group_label=Yes
macromolecule_sequence=GGCCAGCAAUAUUACGCUAA group_label=Yes
macromolecule_sequence=CUUCAGCAAUAUUACGUAUU group_label=No
macromolecule_sequence=ACGGAGCAAUAUUACGCGCU group_label=No
macromolecule_sequence=CCCUAGCAAUAUUACGAAUG group_label=No
macromolecule_sequence=UUGAAGCAAUAUUACGAAGG group_label=Yes
macromolecule_sequence=GUUGAGCAAUAUUACGACUA group_label=Yes
macromolecule_sequence=GACAAGCAAUAUUACGUCAA group_label=Yes
macromolecule_sequence=CUCUAGCAAUAUUACGGAUU group_label=No
macromolecule_sequence=AUUCAGCAAUAUUACGGAUA group_label=Yes
macromolecule_sequence=UAACAGCAAUAUUACGCGGC group_label=No
macromolecule_sequence=UGCAAGCAAUAUUACGCGCU group_label=Yes
macromolecule_sequence=AGUUAGCAAUAUUACGGAUC group_label=Yes
macromolecule_sequence=GCUCAGCAAUAUUACGCCAU group_label=No
macromolecule_sequence=UUAUAGCAAUAUUACGUGCG group_label=Yes
macromolecule_sequence=UACAAGCAAUAUUACGUACA group_label=Yes
macromolecule_sequence=CUGCAGCAAUAUUACGCCCG group_label=Yes
macromolecule_sequence=CCGCAGCAAUAUUACGCGGU group_label=No
macromolecule_sequence=UUGUAGCAAUAUUACGCCCA group_label=Yes
macromolecule_sequence=AGUAAGCAAUAUUACGCGAU group_label=No
macromolecule_sequence=UGGUAGCAAUAUUACGUUUA group_label=Yes
macromolecule_sequence=AUAGAGCAAUAUUACGACCU group_label=Yes
macromolecule_sequence=UAUCAGCAAUAUUACGAUGA group_label=Yes
macromolecule_sequence=ACAUAGCAAUAUUACGCAGA group_label=Yes
macromolecule_sequence=UCCCAGCAAUAUUACGGCAG group_label=No
macromolecule_sequence=CUUGAGCAAUAUUACGUUUA group_label=No
macromolecule_sequence=UUGGAGCAAUAUUACGGCUU group_label=Yes
macromolecule_sequence=GGACAGCAAUAUUACGCGUU group_label=No
macromolecule_sequence=UGUGAGCAAUAUUACGGGUU group_label=No
macromolecule_sequence=CGGCAGCAAUAUUACGGACU group_label=Yes
macromolecule_sequence=GCUAAGCAAUAUUACGCAGC group_label=No
macromolecule_sequence=GCCAAGCAAUAUUACGUCCG group_label=Yes
macromolecule_sequence=GAACAGCAAUAUUACGCAUU group_label=Yes

###

assay: self-splicing fitness, log relative to wild type (ln ratio); higher = more splicing; Tetrahymena group I intron in knt gene, E. coli kanamycin selection, DiMSum; sequences stand for … in CUCUCU…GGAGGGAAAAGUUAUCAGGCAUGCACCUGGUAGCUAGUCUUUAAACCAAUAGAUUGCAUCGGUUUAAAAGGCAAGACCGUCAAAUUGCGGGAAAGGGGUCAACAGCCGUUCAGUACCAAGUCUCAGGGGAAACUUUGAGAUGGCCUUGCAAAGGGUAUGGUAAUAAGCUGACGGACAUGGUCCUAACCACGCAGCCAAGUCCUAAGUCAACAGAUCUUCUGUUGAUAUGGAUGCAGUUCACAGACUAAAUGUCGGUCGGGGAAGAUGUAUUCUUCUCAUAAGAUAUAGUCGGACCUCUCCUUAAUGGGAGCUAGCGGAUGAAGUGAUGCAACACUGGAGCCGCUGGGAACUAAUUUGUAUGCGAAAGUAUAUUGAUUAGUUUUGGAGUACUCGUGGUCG; settings: 30 °C
Measurement Label: self-splicing fitness (ln)

macromolecule_sequence=CACUAGCAAUAUUACGAGUC value_reported=-2.82
macromolecule_sequence=UAUAAGCAAUAUUACGGGCA value_reported=-0.658
macromolecule_sequence=CUCCAGCAAUAUUACGACAA value_reported=-2.27
macromolecule_sequence=GCGGAGCAAUAUUACGGUGG value_reported=-3.54
macromolecule_sequence=GGAAAGCAAUAUUACGAAUG value_reported=-3.53
macromolecule_sequence=CGUGAGCAAUAUUACGGCGA value_reported=-2.31
macromolecule_sequence=GGCUAGCAAUAUUACGGCAG value_reported=-1.12
macromolecule_sequence=CCAAAGCAAUAUUACGAAUU value_reported=-3.58
macromolecule_sequence=CGCCAGCAAUAUUACGGUGC value_reported=-3.5
macromolecule_sequence=GAUUAGCAAUAUUACGGGGA value_reported=-2.86
macromolecule_sequence=GCGAAGCAAUAUUACGAAUG value_reported=-1.95
macromolecule_sequence=CGAGAGCAAUAUUACGGGAC value_reported=-3.92
macromolecule_sequence=AUGCAGCAAUAUUACGGCAU value_reported=-3.9
macromolecule_sequence=GGCUAGCAAUAUUACGGCUC value_reported=-3.26
macromolecule_sequence=UUAGAGCAAUAUUACGGUCC value_reported=-2.67
macromolecule_sequence=UCCUAGCAAUAUUACGAGUC value_reported=-2.71
macromolecule_sequence=GACCAGCAAUAUUACGGUUU value_reported=-2.44
macromolecule_sequence=AAGUAGCAAUAUUACGCCUC value_reported=-1.63
macromolecule_sequence=ACGCAGCAAUAUUACGCAGC value_reported=-3.49
macromolecule_sequence=CAUCAGCAAUAUUACGUUGC value_reported=-3.81
macromolecule_sequence=CACCAGCAAUAUUACGUUAA value_reported=-3.35
macromolecule_sequence=UGAUAGCAAUAUUACGGAAA value_reported=-4.03
macromolecule_sequence=GAGUAGCAAUAUUACGUAAC value_reported=-2.12
macromolecule_sequence=UCCUAGCAAUAUUACGUCGC value_reported=-4.08
macromolecule_sequence=GCUCAGCAAUAUUACGCAUG value_reported=-1.66
macromolecule_sequence=AGAAAGCAAUAUUACGCGAU value_reported=-3.37
macromolecule_sequence=CUUAAGCAAUAUUACGGCCC value_reported=-2.8
macromolecule_sequence=UCUGAGCAAUAUUACGAGCC value_reported=-1.65
macromolecule_sequence=GGGUAGCAAUAUUACGCGUU value_reported=-0.304
macromolecule_sequence=CGACAGCAAUAUUACGCGGC value_reported=-3.55
macromolecule_sequence=UUAUAGCAAUAUUACGAUCG value_reported=-0.934
macromolecule_sequence=AGUCAGCAAUAUUACGUUAA value_reported=-3.47
macromolecule_sequence=AUAGAGCAAUAUUACGACUA value_reported=-0.25
macromolecule_sequence=AACCAGCAAUAUUACGAAAA value_reported=-1.54
macromolecule_sequence=AUGGAGCAAUAUUACGUGCC value_reported=-2.59
macromolecule_sequence=CAUUAGCAAUAUUACGGGCU value_reported=-1.68
macromolecule_sequence=GUAUAGCAAUAUUACGUAUC value_reported=-2.07
macromolecule_sequence=AGCUAGCAAUAUUACGCACG value_reported=-0.605
macromolecule_sequence=CUGAAGCAAUAUUACGUAUA value_reported=-2.8
macromolecule_sequence=AGAUAGCAAUAUUACGAGGA value_reported=-2.21
macromolecule_sequence=UAACAGCAAUAUUACGUAGA value_reported=-2.81
macromolecule_sequence=GAUGAGCAAUAUUACGAAUC value_reported=-3.19
macromolecule_sequence=GCUGAGCAAUAUUACGUAUA value_reported=-3.69
macromolecule_sequence=AGAAAGCAAUAUUACGCACC value_reported=0.221
macromolecule_sequence=ACGAAGCAAUAUUACGCAAG value_reported=-1.02
macromolecule_sequence=GAUGAGCAAUAUUACGGCUA value_reported=-1.01
macromolecule_sequence=CACAAGCAAUAUUACGGAGC value_reported=-3.77
macromolecule_sequence=ACUAAGCAAUAUUACGUGUC value_reported=-3.48
macromolecule_sequence=CGUCAGCAAUAUUACGUUGG value_reported=-3.57
macromolecule_sequence=AGAAAGCAAUAUUACGUCCG value_reported=-0.86
macromolecule_sequence=GCACAGCAAUAUUACGCGGG value_reported=-2.13
macromolecule_sequence=GUGAAGCAAUAUUACGAUUA value_reported=0.198
macromolecule_sequence=CCGAAGCAAUAUUACGGGAC value_reported=-4.02
macromolecule_sequence=GAUGAGCAAUAUUACGGUAA value_reported=-2.21
macromolecule_sequence=UGUGAGCAAUAUUACGGUCU value_reported=-3.01
macromolecule_sequence=UUCUAGCAAUAUUACGCACC value_reported=-2.54
macromolecule_sequence=UACUAGCAAUAUUACGUUUG value_reported=-3.28
macromolecule_sequence=AGUCAGCAAUAUUACGGGUG value_reported=-1.82
macromolecule_sequence=CCUCAGCAAUAUUACGGCUU value_reported=-1.94
macromolecule_sequence=CCUAAGCAAUAUUACGGGUU value_reported=-3.52
macromolecule_sequence=ACGAAGCAAUAUUACGUUGG value_reported=-3.56
macromolecule_sequence=UUACAGCAAUAUUACGACUG value_reported=-1.26
macromolecule_sequence=CUAAAGCAAUAUUACGAGUA value_reported=-3.16
macromolecule_sequence=CGCAAGCAAUAUUACGAUGG value_reported=-0.351
macromolecule_sequence=CCCUAGCAAUAUUACGAACG value_reported=-3
macromolecule_sequence=CUGCAGCAAUAUUACGGAUA value_reported=-3.58
macromolecule_sequence=GGACAGCAAUAUUACGGGCU value_reported=-1.89
